# TESTED_ON: T1, GST-CsdA (Pestalotiopsis fici CGMCC3.15140, UniProt W3WSJ8 1-634)
# T1 sequence: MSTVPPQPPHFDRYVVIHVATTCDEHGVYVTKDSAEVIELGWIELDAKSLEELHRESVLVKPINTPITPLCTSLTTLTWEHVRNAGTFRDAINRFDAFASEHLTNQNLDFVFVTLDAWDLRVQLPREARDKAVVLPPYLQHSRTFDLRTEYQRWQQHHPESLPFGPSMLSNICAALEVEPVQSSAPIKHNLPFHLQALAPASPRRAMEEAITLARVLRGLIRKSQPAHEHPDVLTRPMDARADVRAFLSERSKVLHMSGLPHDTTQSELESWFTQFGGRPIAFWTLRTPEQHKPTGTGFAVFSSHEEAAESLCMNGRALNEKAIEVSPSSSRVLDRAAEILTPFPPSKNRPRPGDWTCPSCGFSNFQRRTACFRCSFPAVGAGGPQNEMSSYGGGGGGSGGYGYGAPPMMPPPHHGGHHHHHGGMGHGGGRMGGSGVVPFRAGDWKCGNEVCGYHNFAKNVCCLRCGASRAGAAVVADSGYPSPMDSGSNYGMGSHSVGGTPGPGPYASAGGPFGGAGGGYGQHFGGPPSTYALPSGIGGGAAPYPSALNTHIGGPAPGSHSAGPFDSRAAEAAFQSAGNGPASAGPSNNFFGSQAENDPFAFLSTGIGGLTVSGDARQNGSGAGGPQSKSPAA
# METHOD_NOTES: ITC; EMSA: Beyotime EMSA kit buffer, 20 min at 25 C, 6% polyacrylamide gel; ITC: 200 uM RNA into 50 uM CsdA, 25 C, buffer not stated (protein elution buffer 50 mM Tris, 150 mM NaCl, 10 mM GSH, pH 8.0)
# RUN_PARAMETERS: protein: recombinant; tags: GST (N-terminal, pGEX-4T; pYSZL6)
pKd: −log10 of the molar value.
REPORTED_PROPERTY: pKd

>  <BINDER>
GUCGGUAUCGUCGGUAUGGUCGGUAUUGUCGGUAU (ssRNA) [4xGUCGGUAU RNA (ITC)]

>  <EXPERIMENTAL_VALUE>
4.98

$$$$
>  <BINDER>
GUCGGUAU (ssRNA) [1xGUCGGUAU RNA (ITC)]

>  <EXPERIMENTAL_VALUE>
4.70

$$$$
